B1: HDAC6 (parent)
chain: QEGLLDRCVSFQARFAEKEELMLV

variants of: B1; test: protein stability index of a GFP-peptide fusion (GPS, HEK-293T) (PSI 1-6); higher = more stable; settings: c terminus: a fixed tail appended;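 further: lentivirally expressed fusions sorted by FACS into six bins by GFP to DsRed ratio, PSI derived from sequencing read proportions per bin multiplied by bin number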
// reported protein stability index for each item listed

| mutation-name | protein stability index |
| --- | --- |
| R7I | 2.91 |
| L5C | 1.34 |
| K18A | 1.98 |
| A13V | 1.39 |
| A16N | 1.97 |
| Q12M | 2.02 |
| R7G | 2.17 |
| L4W | 1.5 |
| S10I | 1.77 |
| V9R | 2 |
| D6S | 2.13 |
